target-or-system: EF-G (E. coli, UniProt P0A6M8 1-704)
Sequence (P0A6M8 whole entry): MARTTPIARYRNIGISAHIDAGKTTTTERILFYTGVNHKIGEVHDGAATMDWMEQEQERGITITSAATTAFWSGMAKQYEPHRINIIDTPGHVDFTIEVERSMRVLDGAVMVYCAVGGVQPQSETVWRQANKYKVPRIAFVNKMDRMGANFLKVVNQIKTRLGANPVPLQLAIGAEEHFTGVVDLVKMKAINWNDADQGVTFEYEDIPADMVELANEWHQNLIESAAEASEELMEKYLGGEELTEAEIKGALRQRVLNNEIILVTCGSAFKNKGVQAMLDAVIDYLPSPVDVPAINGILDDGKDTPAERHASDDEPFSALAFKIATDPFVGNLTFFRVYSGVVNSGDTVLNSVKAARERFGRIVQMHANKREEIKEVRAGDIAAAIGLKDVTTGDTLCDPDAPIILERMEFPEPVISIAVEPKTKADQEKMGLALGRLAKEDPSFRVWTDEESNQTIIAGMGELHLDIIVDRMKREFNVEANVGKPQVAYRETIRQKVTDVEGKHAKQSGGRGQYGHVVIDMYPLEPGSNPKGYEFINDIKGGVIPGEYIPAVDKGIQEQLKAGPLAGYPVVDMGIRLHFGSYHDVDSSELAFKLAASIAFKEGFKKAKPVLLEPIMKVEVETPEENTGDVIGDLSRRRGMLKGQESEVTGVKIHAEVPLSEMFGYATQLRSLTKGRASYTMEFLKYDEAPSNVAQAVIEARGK
method-description: ITC
measured-endpoint: pKd
Scale note: pKd = -log10(concentration in M).

Problem: Data request, read-out pKd, for GGGCUCCUAGUACGAGAGGACCGGAGU (structured_RNA) [SRL RNA wt (27 nt)]
Result: 5.43
